# test protocol: Plasma pharmacokinetics of GSK3532795, part A
# Type: in vivo
# condition: human, oral, 80 mg
attribute measured: concentration at 24 h (ng/mL)

* C=C(C)[C@@H]1CC[C@]2(NCCN3CCS(=O)(=O)CC3)CC[C@]3(C)[C@H](CC[C@@H]4[C@@]5(C)CC=C(c6ccc(C(=O)O)cc6)C(C)(C)[C@@H]5CC[C@]43C)[C@@H]12 | 1150

---

# test protocol: Plasma pharmacokinetics of GSK3532795, part B
# Format: in vivo, human
# condition: human, plasma, oral, Tmax, median (min–max), Part B, fed, 40 mg + ATV 300 mg + RTV 100 mg QD
attribute measured: Tmax (h)

• C=C(C)[C@@H]1CC[C@]2(NCCN3CCS(=O)(=O)CC3)CC[C@]3(C)[C@H](CC[C@@H]4[C@@]5(C)CC=C(c6ccc(C(=O)O)cc6)C(C)(C)[C@@H]5CC[C@]43C)[C@@H]12 = 5

---

# test protocol: Plasma pharmacokinetics of GSK3532795, part A
# Assay type: in vivo
# condition: human, oral, 120 mg
attribute measured: concentration at 24 h (ng/mL)

- C=C(C)[C@@H]1CC[C@]2(NCCN3CCS(=O)(=O)CC3)CC[C@]3(C)[C@H](CC[C@@H]4[C@@]5(C)CC=C(c6ccc(C(=O)O)cc6)C(C)(C)[C@@H]5CC[C@]43C)[C@@H]12 [GSK3532795]: 1290

---

# test protocol: Plasma pharmacokinetics of GSK3532795, part C
# Format: in vivo, human
# condition: human, plasma, oral, 120 mg
attribute measured: Cmax (ng/mL)

• C=C(C)[C@@H]1CC[C@]2(NCCN3CCS(=O)(=O)CC3)CC[C@]3(C)[C@H](CC[C@@H]4[C@@]5(C)CC=C(c6ccc(C(=O)O)cc6)C(C)(C)[C@@H]5CC[C@]43C)[C@@H]12 = 3380

---

# test protocol: Plasma pharmacokinetics of GSK3532795, part A
# Format: in vivo
# condition: human, oral, 10 mg
attribute measured: half-life (min)

* C=C(C)[C@@H]1CC[C@]2(NCCN3CCS(=O)(=O)CC3)CC[C@]3(C)[C@H](CC[C@@H]4[C@@]5(C)CC=C(c6ccc(C(=O)O)cc6)C(C)(C)[C@@H]5CC[C@]43C)[C@@H]12 [GSK3532795] | 1990

---

# test protocol: Plasma pharmacokinetics of GSK3532795, part A
# Assay type: in vivo
# condition: human, oral, 80 mg
attribute measured: half-life (h)

• C=C(C)[C@@H]1CC[C@]2(NCCN3CCS(=O)(=O)CC3)CC[C@]3(C)[C@H](CC[C@@H]4[C@@]5(C)CC=C(c6ccc(C(=O)O)cc6)C(C)(C)[C@@H]5CC[C@]43C)[C@@H]12 = 30

---

# test protocol: Plasma pharmacokinetics of GSK3532795, part B
# Type: in vivo, human
# condition: human, plasma, oral, Cmax (%CV), Part B, fed, 40 mg + ATV 300 mg + RTV 100 mg QD
attribute measured: Cmax

* C=C(C)[C@@H]1CC[C@]2(NCCN3CCS(=O)(=O)CC3)CC[C@]3(C)[C@H](CC[C@@H]4[C@@]5(C)CC=C(c6ccc(C(=O)O)cc6)C(C)(C)[C@@H]5CC[C@]43C)[C@@H]12 [GSK3532795] | 1850 ng/mL
